The reported numbers originate from patent US12012392B2.

Target: NLRP3 (Homo sapiens, UniProt Q96P20)
Sequence (Q96P20 whole entry): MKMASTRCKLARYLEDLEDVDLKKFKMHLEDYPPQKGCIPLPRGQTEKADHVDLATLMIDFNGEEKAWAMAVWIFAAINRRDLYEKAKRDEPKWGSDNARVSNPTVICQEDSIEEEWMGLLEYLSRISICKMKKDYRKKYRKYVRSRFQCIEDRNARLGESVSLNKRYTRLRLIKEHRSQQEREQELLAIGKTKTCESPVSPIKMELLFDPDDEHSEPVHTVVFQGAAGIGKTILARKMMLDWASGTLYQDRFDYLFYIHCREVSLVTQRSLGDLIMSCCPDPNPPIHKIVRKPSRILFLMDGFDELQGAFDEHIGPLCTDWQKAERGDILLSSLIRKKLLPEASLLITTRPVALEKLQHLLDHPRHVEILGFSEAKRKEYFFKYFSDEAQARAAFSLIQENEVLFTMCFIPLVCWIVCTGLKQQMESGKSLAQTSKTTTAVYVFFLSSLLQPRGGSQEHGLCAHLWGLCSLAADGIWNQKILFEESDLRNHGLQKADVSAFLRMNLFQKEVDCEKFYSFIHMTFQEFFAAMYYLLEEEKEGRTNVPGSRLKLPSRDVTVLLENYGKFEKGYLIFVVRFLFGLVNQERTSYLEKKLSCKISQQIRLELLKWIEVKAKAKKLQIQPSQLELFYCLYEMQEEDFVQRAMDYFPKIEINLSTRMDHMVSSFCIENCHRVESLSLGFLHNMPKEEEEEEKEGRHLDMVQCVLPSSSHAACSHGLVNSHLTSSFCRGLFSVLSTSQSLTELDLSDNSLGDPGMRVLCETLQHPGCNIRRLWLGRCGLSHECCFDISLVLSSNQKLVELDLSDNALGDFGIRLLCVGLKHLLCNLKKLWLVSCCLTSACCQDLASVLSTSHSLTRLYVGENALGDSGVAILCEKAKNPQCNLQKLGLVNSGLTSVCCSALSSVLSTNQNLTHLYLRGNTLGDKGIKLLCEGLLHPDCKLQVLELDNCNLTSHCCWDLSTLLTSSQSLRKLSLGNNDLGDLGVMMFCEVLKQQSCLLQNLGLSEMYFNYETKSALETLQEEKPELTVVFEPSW
Assay: Human whole blood IL1β release assay
Type: cell-based
Set-up: Plate out 80 μl of whole blood containing 1 μg/ml of LPS; from tissue; host or cells: human whole blood from healthy donors, LPS-primed, nigericin-stimulated
Conditions: LPS 1 μg/ml, nigericin 10 μM, IL-1β AlphaLisa, read-out: HWB IC50

{"columns": ["molecule", "IC50"],
 "data": [
  ["Cn1nc(S(=O)(=O)NC(=O)Nc2c3c(cc4c2CCC4)CCC3)cc1C1(F)COC1", "0.8 to 1.6 µM"],
  ["CC(C)c1cc(F)cc(-c2cccnc2)c1NC(=O)NS(=O)(=O)c1ccn(C[C@@H](C)O)n1", "< 0.4 µM"],
  ["COCCn1ccc(S(=O)(=O)NC(=O)Nc2c3c(cc4c2CCC4)CCC3)n1", "0.8 to 1.6 µM"],
  ["C[C@@H](O)Cn1ncc(S(=O)(=O)NC(=O)Nc2c3c(cc4c2CCC4)CCC3)n1", "0.8 to 1.6 µM"],
  ["CC(C)(CO)n1ccc(S(=O)(=O)NC(=O)Nc2c3c(cc4c2CCC4)CCC3)n1", "0.8 to 1.6 µM"],
  ["CC(C)c1cc(F)cc(C(C)C)c1NC(=O)NS(=O)(=O)c1ccn(CC(C)(C)O)n1", "1.6 to 3.2 µM"],
  ["O=C(Nc1c2c(cc3c1CCC3)CCC2)NS(=O)(=O)c1ccn(CC2CCCO2)n1 (single isomer, unassigned) [Example 5]", "0.8 to 1.6 µM"],
  ["C[C@H](CO)n1ccc(S(=O)(=O)NC(=O)Nc2c3c(cc4c2CCC4)CCC3)n1", "< 0.4 µM"],
  ["C[C@@H](O)Cn1cnc(S(=O)(=O)NC(=O)Nc2c3c(cc4c2CCC4)CCC3)n1", "0.4 to 0.8 µM"],
  ["O=C(Nc1c2c(cc3c1CCC3)CCC2)NS(=O)(=O)c1ccn(CC(O)C(F)(F)F)n1 (stereo not shown)", "0.8 to 1.6 µM"],
  ["C[C@@H](O)Cn1ccc(S(=O)(=O)NC(=O)Nc2c3c(cc4c2CCC4)CCC3)n1", "0.4 to 0.8 µM"],
  ["COc1cc(-c2ccc3c(c2NC(=O)NS(=O)(=O)c2ccn(CC(C)(C)OC)n2)CCC3)ccn1", "< 0.4 µM"],
  ["O=C(Nc1c2c(cc3c1CCC3)CCC2)NS(=O)(=O)c1ccn(C2(CO)CCC2)n1", "< 0.4 µM"],
  ["COC1(c2cc(S(=O)(=O)NC(=O)Nc3c4c(cc5c3CCC5)CCC4)nn2C)CCOC1 (stereo not shown)", "< 0.4 µM"],
  ["CC(C)(O)Cn1ccc(S(=O)(=O)NC(=O)Nc2c(-c3ccnc(C#N)c3)ccc3c2CCC3)n1", "< 0.4 µM"],
  ["O=C(Nc1c2c(cc3c1CCC3)CCC2)NS(=O)(=O)c1ccn(CCCO)n1", "0.4 to 0.8 µM"],
  ["CCn1nc(S(=O)(=O)NC(=O)Nc2c3c(cc4c2CCC4)CCC3)cc1C1(O)COC1", "< 0.4 µM"],
  ["O=C(Nc1c2c(cc3c1CCC3)CCC2)NS(=O)(=O)c1ccn(CC2CCCO2)n1 (stereo not shown) [Example 3]", "0.8 to 1.6 µM"],
  ["COC(C)(C)Cn1ccc(S(=O)(=O)NC(=O)Nc2c3c(cc4c2CCC4)CCC3)n1", "0.4 to 0.8 µM"],
  ["COC1(c2cc(S(=O)(=O)NC(=O)Nc3c4c(cc5c3CCC5)CCC4)nn2C2CC2)COC1", "< 0.4 µM"],
  ["C[C@@H](O)Cn1cc(S(=O)(=O)NC(=O)Nc2c3c(cc4c2CCC4)CCC3)nn1", "0.8 to 1.6 µM"],
  ["COc1cc(-c2ccc3c(c2NC(=O)NS(=O)(=O)c2ccn(CC(C)(C)O)n2)CCC3)ccn1", "< 0.4 µM"],
  ["COCCN(CCOC)C(=O)c1cc(S(=O)(=O)NC(=O)Nc2c3c(cc4c2CCC4)CCC3)nn1C", "0.4 to 0.8 µM"],
  ["O=C(Nc1c2c(cc3c1CCC3)CCC2)NS(=O)(=O)c1ccn(CCO)n1", "< 0.4 µM"],
  ["CCOC1(c2cc(S(=O)(=O)NC(=O)Nc3c4c(cc5c3CCC5)CCC4)nn2C)COC1", "0.4 to 0.8 µM"]
]}
